Target: HLA-A0201 molecules on T2 cells (Homo sapiens, UniProt P04439, D140Y/D185E/D98H/E176V/E277Q/G131W/G231S/I119V/I121R/I166T/I218V/L300P/L318F/N151K/N90K/P208A/P217A/Q86G/Q94H/R138H/R169H/T345S)
Construct: endogenous in cells; host or cells: T2 cell line (Dr. Peter Creswell, Yale University)
Assay: HLA-A0201 binding/stabilization of PSMA derived peptides on T2 cells (BB7.2 flow cytometry)
Assay type: cell-based
Settings: 125.0 μM test peptide, T2 cells, overnight at 37° C., then 3.0 hr de-stabilization step; FI of 0.5 or greater deemed significant
Exercise: state measured Fluorescence Index (FI) for each of the sequences provided.
Lab note: write the figure by itself, no unit.

Query: # lookup: Fluorescence Index (FI) of VLAGGFFLL (CLP328) [CLP-328, PSMA derived peptide, amino acid position 27-35]
Result: 1.3

Query: # lookup: Fluorescence Index (FI) of WLCAGALVL (CLP327) [CLP-327, PSMA derived peptide, amino acid position 20-28]
Result: 0

Query: # lookup: Fluorescence Index (FI) of NMKAFLDEL [CLP-329]
Result: 0

Query: # lookup: Fluorescence Index (FI) of NLNGAGDPL [CLP-331]
Result: 0

Query: # lookup: Fluorescence Index (FI) of PMFKYHLTV [CLP-334]
Result: 0

Query: # lookup: Fluorescence Index (FI) of VLRMMNDQL [CLP-335]
Result: 0.3

Query: # lookup: Fluorescence Index (FI) of ELAHYDVLL (CLP330) [CLP-330, PSMA derived peptide, amino acid position 109-117]
Result: 0.7
